target: Luciferin 4-monooxygenase (Photinus pyralis) (UniProt P08659); assay: qHTS profiling assay for firefly luciferase inhibitor/activator using purifed enzyme and Km concentrations of substrates (counterscreen for miR-21 project); conditions: purified FLuc, luminescence inhibition; series mostly up to 57.5 µM; further: nearly all actives have a fitted effect of over 55% in size
Sequence (P08659 whole entry, looked up): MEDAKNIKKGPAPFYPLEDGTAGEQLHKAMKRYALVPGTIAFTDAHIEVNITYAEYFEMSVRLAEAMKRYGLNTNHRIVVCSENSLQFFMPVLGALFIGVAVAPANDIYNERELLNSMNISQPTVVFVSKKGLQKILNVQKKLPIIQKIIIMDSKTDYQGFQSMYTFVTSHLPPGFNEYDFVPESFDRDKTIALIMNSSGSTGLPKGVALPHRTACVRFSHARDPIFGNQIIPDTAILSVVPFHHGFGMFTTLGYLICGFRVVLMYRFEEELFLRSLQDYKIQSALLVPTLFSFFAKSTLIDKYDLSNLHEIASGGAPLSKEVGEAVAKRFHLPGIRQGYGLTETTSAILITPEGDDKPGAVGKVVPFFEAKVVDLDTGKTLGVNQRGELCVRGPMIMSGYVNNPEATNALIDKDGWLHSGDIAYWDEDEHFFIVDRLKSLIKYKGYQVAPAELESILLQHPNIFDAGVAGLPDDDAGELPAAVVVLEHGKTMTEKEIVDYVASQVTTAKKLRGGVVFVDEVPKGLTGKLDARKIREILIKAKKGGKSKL
Hit rate of the full screen: of about 360,000 compounds, about 25,000 (6.9%) were called active. Roughly 9% stayed inconclusive and do not appear here. The call rests on the fitted dose curve; in most records, active means well fitted inhibition curve with a large enough effect; inconclusive means small, poorly fitted or top-dose-only effect; inactive means flat fitted curve, though single readings scatter. What follows is part of a selection rich in actives, with near analogues and random picks from the rest.
Possible outcomes: active, inactive

- molecule: "COc1ccc(Cl)cc1NC(=O)COc1ccc2c(c1)OCO2"
  group label: "inactive"
- molecule: "O=C(CCSCc1cccc(F)c1)NCc1ccccc1"
  group label: "inactive"
- molecule: "COc1ccccc1OCCCC(=O)Nc1ccc2c(c1)OCCO2"
  group label: "inactive"
- molecule: "COc1ccc(/C=C2/C(=O)N(c3ccccc3)N=C2C)c(OC)c1"
  group label: "active"
- molecule: "O=C(CSc1ncc(S(=O)(=O)c2ccc(Br)cc2)c(=O)[nH]1)Nc1ccc2c(c1)OCCO2"
  group label: "active"
- molecule: "CCCCC(=O)Nc1ccc2c(c1)OCCO2"
  group label: "active"
- molecule: "COc1ccccc1CNc1nccn(-c2ccc(F)cc2)c1=O"
  group label: "inactive"
- molecule: "CCCC12CN3CC(C)(CN(C1)C3c1ccccc1Cl)C2=O (stereo not drawn)"
  group label: "inactive"
- molecule: "CCOc1ccc(N2CC(C)Cn3c2nc2c3c(=O)n(Cc3c(F)cccc3Cl)c(=O)n2C)cc1 (stereo not drawn)"
  group label: "inactive"
- molecule: "CNC(=S)N/N=C/c1cn(Cc2ccc(C)cc2)c2ccccc12"
  group label: "inactive"
- molecule: "O=C(COc1ccc(Cl)cc1)Nc1ccc2c(c1)OCO2"
  group label: "active"
- molecule: "COc1cccc(Cn2cc(/C=N/NC(=O)c3cc(O)cc(O)c3)c3ccccc32)c1"
  group label: "active"
- molecule: "S=C(NCc1ccc2c(c1)OCO2)NCc1ccco1"
  group label: "inactive"
- molecule: "CS(=O)(=O)c1ccc(-c2nnn(CC(=O)Nc3ccc4c(c3)OCCO4)n2)cc1"
  group label: "inactive"
- molecule: "COc1ccc(S(=O)(=O)NCCSc2nnnn2-c2ccccc2)cc1"
  group label: "inactive"
- molecule: "CCCN(CC1CC1)C(=S)NC(=O)c1ccccc1Br"
  group label: "inactive"
- molecule: "Cc1ccc(NC(=O)CSc2nc3c(c(=O)[nH]2)CN(Cc2ccc4c(c2)OCO4)CC3)cc1C"
  group label: "inactive"
- molecule: "O=C(COc1ccc(Cl)cc1)Nc1ccc2oc(=O)ccc2c1"
  group label: "inactive"
- molecule: "O=C(CCS(=O)(=O)Cc1ccccc1)Nc1ccc2c(c1)OCCO2"
  group label: "inactive"
- molecule: "CC(=O)c1cnc(-c2ccccc2)s1"
  group label: "inactive"
- molecule: "Cc1cc(C)c2c(=O)[nH]c(SCC(=O)Nc3ccc(Br)cc3)nc2n1"
  group label: "inactive"
- molecule: "COc1ccc(C(=O)NC2CC(C)(C)Cc3c2cnn3-c2ccccc2)c(OC)c1 (stereo not drawn)"
  group label: "inactive"
- molecule: "CC(C)(C)C(=O)c1cnc(Nc2ccccc2)s1"
  group label: "active"

Data credit: PubChem BioAssay AID588342
